Reported EC50 values follow for various compounds
ASSAYED_SYSTEM: human MOR (Homo sapiens)
Sequence (P35372 whole entry): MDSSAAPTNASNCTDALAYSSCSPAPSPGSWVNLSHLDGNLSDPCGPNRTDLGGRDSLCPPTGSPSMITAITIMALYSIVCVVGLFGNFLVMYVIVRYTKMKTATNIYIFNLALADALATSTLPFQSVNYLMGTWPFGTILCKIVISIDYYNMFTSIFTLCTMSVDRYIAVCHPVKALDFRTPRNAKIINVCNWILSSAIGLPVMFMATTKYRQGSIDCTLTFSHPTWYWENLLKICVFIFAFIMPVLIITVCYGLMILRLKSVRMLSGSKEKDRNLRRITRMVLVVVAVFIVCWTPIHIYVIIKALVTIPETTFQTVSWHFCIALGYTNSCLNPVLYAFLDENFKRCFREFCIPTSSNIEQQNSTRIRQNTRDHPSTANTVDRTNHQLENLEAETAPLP
ASSAY_EXPLANATION: biochemical
Please give a number only; it is taken to be in nM.

- COMPOUND: "Cc1cc(O)cc(C)c1C[C@H](N)C(=O)NCCCCCN1CCc2ccccc2C1.O=C(O)C(F)(F)F [I]"
  READOUT_UNITS: "nM"
  EC50: 15.4
- COMPOUND: "CCCOc1ccc(CN2CCc3ccccc3C2)cc1CNC(=O)[C@@H](N)Cc1c(C)cc(O)cc1C.O=C(O)C(F)(F)F [G]"
  READOUT_UNITS: "nM"
  EC50: 2.6
- COMPOUND: "COc1ccc(CN2CCc3ccccc3C2)cc1CNC(=O)[C@@H](N)Cc1c(C)cc(O)cc1C [F]"
  READOUT_UNITS: "nM"
  EC50: 2.9

Incoming: Could you tell me which EC50 is on file for Cc1cc(O)cc(C)c1C[C@H](N)C(=O)N1CCC(CCN2CCc3ccccc3C2)CC1.O=C(O)C(F)(F)F [L] ?
Outgoing: 68

---

ASSAYED_SYSTEM: human DOR (Homo sapiens, UniProt P41143)
Sequence (P41143 whole entry): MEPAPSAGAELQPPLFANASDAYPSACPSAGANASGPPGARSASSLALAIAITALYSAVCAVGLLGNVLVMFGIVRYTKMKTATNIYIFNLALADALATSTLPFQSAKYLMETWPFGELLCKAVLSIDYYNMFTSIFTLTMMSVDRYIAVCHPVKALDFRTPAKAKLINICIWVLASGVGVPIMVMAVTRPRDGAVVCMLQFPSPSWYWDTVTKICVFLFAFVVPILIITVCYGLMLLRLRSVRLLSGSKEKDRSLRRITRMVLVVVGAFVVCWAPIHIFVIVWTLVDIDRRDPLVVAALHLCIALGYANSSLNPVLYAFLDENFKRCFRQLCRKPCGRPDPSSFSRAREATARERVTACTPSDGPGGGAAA
ASSAY_EXPLANATION: biochemical
Format: binding
Reported Ki values follow for various compounds

// below: answered compounds
- STRUCTURE: "COc1ccc(CN2CCc3ccccc3C2)cc1CNC(=O)[C@@H](N)Cc1c(C)cc(O)cc1C"
  Ki: "3 nM"
- STRUCTURE: "CCCOc1ccc(CN2CCc3ccccc3C2)cc1CNC(=O)[C@@H](N)Cc1c(C)cc(O)cc1C.O=C(O)C(F)(F)F"
  Ki: "1.4 nM"
- STRUCTURE: "Cc1cc(O)cc(C)c1C[C@H](N)C(=O)N1CCN(CCN2CCc3ccccc3C2)CC1.O=C(O)C(F)(F)F"
  Ki: "16.6 nM"

Read the next record carefully.
Incoming: Could you tell me which Ki is on file for Cc1cc(O)cc(C)c1C[C@H](N)C(=O)NCc1cc(CN2CCc3ccccc3C2)ccc1OCC1CC1.O=C(O)C(F)(F)F ?
Outgoing: 3.6 nM

---

ASSAYED_SYSTEM: human MOR (Homo sapiens)
ASSAY_EXPLANATION: biochemical
Assay type: binding
ATTRIBUTE_MEASURED: pKi
Interpret pKi as the negative base-10 log of the concentration measured in mol/L.

// below: answered molecules
- STRUCTURE: "CCCOc1ccc(CN2CCc3ccccc3C2)cc1CNC(=O)[C@@H](N)Cc1c(C)cc(O)cc1C.O=C(O)C(F)(F)F"
  pKi: 9.66
- STRUCTURE: "COc1ccc(CN2CCc3ccccc3C2)cc1CNC(=O)[C@@H](N)Cc1c(C)cc(O)cc1C"
  pKi: 9.80
- STRUCTURE: "Cc1cc(O)cc(C)c1C[C@H](N)C(=O)NCc1cc(CN2CCc3ccccc3C2)ccc1OCC1CC1.O=C(O)C(F)(F)F"
  pKi: 10.30

Read the next record carefully.
Incoming: Could you tell me which pKi is on file for Cc1cc(O)cc(C)c1C[C@H](N)C(=O)NCc1cccc(CN2CCCCC2)c1.O=C(O)C(F)(F)F ?
Outgoing: 8.03

---

ASSAYED_SYSTEM: human MOR (Homo sapiens)
ASSAY_EXPLANATION: biochemical
Type: binding
ATTRIBUTE_MEASURED: Ki (nM)
Please give a number only; it is taken to be in nM.

// below: answered compounds
- COMPOUND: "Cc1cc(O)cc(C)c1C[C@H](N)C(=O)N1CCN(CCN2CCc3ccccc3C2)CC1.O=C(O)C(F)(F)F [M]"
  Ki [nM]: 3.59
- COMPOUND: "Cc1cc(O)cc(C)c1C[C@H](N)C(=O)NCc1cccc(CN2CCc3ccccc3C2)c1.O=C(O)C(F)(F)F [E]"
  Ki [nM]: 0.23
- COMPOUND: "Cc1cc(O)cc(C)c1C[C@H](N)C(=O)NCCCCCN1CCc2ccccc2C1.O=C(O)C(F)(F)F [I]"
  Ki [nM]: 1.5

Incoming: Could you tell me which Ki is on file for Cc1cc(O)cc(C)c1C[C@H](N)C(=O)N1CCC(CCN2CCc3ccccc3C2)CC1.O=C(O)C(F)(F)F [L] ?
Outgoing: 1.64
